measurement_notes: in vitro
conditions_used: PAMPA
Description: Membrane permeability by PAMPA
parameter_measured: Papp (×10⁻⁶ cm/s)
Answer in ×10⁻⁶ cm/s, number only, no unit symbol.

Task: Recall and state the measured Papp for C#Cc1ccc2c(c1)-c1nc(C)ncc1Cc1c(C(=O)OCC)ncn1-2 .
Output: 2.78

Task: Item CCOC(=O)c1ncn2c1Cn1ncnc1-c1cc(Cl)ccc1-2 : provide Papp
Output: 5.59

Task: Quickly give me recorded Papp for CCOC(=O)c1ncn2c1Cc1cnc(C)nc1-c1cc(Br)ccc1-2
Output: 3.6

Task: Assign Papp to the following record: c1ccc2c(c1)-c1ncnn1Cc1cncn1-2
Output: 2.87

* * *

Quick note: these are Ki numbers for system: GABA-A receptor; alpha-5/beta-3/gamma-2 (Homo sapiens, UniProt P18507+P28472+P31644)
Sequence (P18507 whole entry): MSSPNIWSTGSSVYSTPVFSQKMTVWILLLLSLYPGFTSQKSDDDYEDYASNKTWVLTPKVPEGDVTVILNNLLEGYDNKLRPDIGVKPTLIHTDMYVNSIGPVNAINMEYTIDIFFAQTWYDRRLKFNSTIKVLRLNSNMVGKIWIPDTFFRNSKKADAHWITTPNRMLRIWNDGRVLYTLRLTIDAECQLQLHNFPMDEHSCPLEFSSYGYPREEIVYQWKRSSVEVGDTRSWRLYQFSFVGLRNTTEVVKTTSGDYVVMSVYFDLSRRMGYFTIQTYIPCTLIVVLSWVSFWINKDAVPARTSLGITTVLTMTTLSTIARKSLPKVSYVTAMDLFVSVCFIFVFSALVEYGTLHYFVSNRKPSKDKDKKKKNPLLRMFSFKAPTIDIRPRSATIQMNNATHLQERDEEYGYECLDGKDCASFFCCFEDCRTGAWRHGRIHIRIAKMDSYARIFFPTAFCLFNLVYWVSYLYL
Sequence (P28472 whole entry): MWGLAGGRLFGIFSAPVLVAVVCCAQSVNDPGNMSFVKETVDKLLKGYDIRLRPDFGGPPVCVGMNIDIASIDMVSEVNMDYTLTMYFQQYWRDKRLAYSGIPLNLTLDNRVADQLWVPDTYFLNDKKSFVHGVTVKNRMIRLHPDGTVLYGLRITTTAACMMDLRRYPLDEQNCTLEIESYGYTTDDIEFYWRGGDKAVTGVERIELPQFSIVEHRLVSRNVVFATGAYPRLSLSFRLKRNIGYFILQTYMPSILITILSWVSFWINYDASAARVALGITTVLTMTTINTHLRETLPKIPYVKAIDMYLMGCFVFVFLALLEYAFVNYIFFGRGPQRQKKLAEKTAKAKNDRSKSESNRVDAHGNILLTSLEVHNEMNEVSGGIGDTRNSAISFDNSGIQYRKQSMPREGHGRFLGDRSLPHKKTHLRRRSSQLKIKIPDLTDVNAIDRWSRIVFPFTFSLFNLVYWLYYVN
Sequence (P31644 whole entry): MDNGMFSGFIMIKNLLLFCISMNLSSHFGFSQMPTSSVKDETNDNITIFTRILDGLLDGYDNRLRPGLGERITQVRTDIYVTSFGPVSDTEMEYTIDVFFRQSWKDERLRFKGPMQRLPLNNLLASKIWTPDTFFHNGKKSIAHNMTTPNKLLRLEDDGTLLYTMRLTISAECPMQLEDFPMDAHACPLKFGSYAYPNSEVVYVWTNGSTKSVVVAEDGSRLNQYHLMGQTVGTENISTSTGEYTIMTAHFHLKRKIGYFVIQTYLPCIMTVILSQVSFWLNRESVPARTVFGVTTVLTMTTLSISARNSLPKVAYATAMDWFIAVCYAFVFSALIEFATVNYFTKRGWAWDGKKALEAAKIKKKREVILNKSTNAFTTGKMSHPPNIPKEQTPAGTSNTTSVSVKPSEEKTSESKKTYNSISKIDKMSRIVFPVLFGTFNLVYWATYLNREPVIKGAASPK
Output should be the measured figure followed by the unit it is expressed in.

Task: Return value of Ki for input Cc1ncn2c1Cn1cc(CN3CCCC3=O)nc1-c1cc(Br)ccc1-2 , no commentary.
Output: 1.6 nM

Task: Give the value of Ki reported for the following: CCOc1ncn2c1Cn1nccc1-c1cc(Cl)ccc1-2
Output: 1.4 nM

Task: Recall and state the measured Ki for CCOC(=O)c1ncn2c1Cc1cncnc1-c1ccccc1-2 .
Output: 3.7 nM

Task: Fill in reported Ki for this entry: CCOC(=O)c1ncn2c1Cn1cnnc1-c1cc(F)ccc1-2
Output: 1.7 nM

Task: Query Ki for CCOC(=O)c1ncn2c1Cn1cnnc1-c1cc(OC)ccc1-2
Output: 1.4 nM

Task: Note down Ki recorded for Clc1ncn2c1Cc1cncnc1-c1cc(Br)ccc1-2
Output: 136 nM

Task: Respond only with Ki recorded for CCOC(=O)c1ncn2c1Cc1cnc(C3CC3)nc1-c1cc(F)ccc1-2
Output: 7.8 nM

Task: // Input: Brc1ccc2c(c1)-c1nncn1Cc1c(I)ncn1-2 . Output its Ki only.
Output: 7.8 nM

Task: Item CCOC(=O)c1ncn2c1Cc1cnc(C)nc1-c1ccccc1-2 : provide Ki
Output: 3.8 nM

Task: Please supply the value of reported Ki for the item CCCc1ncc2c(n1)-c1ccccc1-n1cnc(C(=O)OCC)c1C2
Output: 5.5 nM

Task: Provide only the value of recorded Ki for CCOC(=O)c1ncn2c1Cc1cnc(C3CC3)nc1-c1ccccc1-2
Output: 7.6 nM

Task: Hello, please tell me recorded Ki for this one: C#Cc1ccc2c(c1)-c1nncn1Cc1c(Cl)ncn1-2
Output: 33.6 nM

Task: Please report Ki for the following compound: CCOC(=O)c1ncn2c1Cc1cnc(C(C)C)nc1-c1ccccc1-2
Output: 8.9 nM

Task: Provide one value: measured Ki of c1ccc2c(c1)-c1ncncc1Cc1cncn1-2
Output: 410 nM

Task: Quote Ki reported for O=C(c1ncn2c1Cn1nccc1-c1ccccc1-2)C1CC1 please.
Output: 1 nM

Task: Indicate the recorded Ki value for this compound: CCOC(=O)c1ncn2c1Cc1cnc(C(C)C)nc1-c1cc(F)ccc1-2
Output: 11.2 nM

Task: Give recorded Ki. c1ccc2c(c1)-c1ncnn1Cc1cncn1-2
Output: 6.4 nM

Task: Supply recorded Ki for C#Cc1ccc2c(c1)-c1ncnn1Cc1c(C(=O)OCC)ncn1-2 here.
Output: 0.6 nM

Task: Identify Ki associated with the compound Cc1ncn2c1Cn1nccc1-c1ccccc1-2
Output: 3 nM

Task: Give Ki for the following compound: CCOC(=O)c1ncn2c1Cn1ncnc1-c1cc(NC(=O)C(C)C)ccc1-2
Output: 6.4 nM

Task: Look up and report measured Ki for this entry: Cc1ncc2c(n1)-c1cc(Br)ccc1-n1cnc(Cl)c1C2
Output: 61 nM

Task: Complete the entry with Ki for Clc1ncn2c1Cn1cnnc1-c1cc(Br)ccc1-2
Output: 27.4 nM

Task: In one line, give reported Ki of the entry CCOC(=O)c1ncn2c1Cc1cnc(-c3ccccc3)nc1-c1ccccc1-2 .
Output: 171 nM

Task: Quick one: give measured Ki for CCOc1ncn2c1Cn1nccc1-c1ccccc1-2
Output: 0.2 nM

Task: Answer with the recorded Ki of Cc1ncc2c(n1)-c1ccccc1-n1cnc(Cl)c1C2 only.
Output: 15.6 nM

Task: Give the value of Ki reported for the following: CCOC(=O)c1ncn2c1Cn1c(-c3ccccc3)nnc1-c1cc(OC)ccc1-2
Output: 53.8 nM

Task: Assign Ki to the following record: CCOC(=O)c1ncn2c1Cn1cnnc1-c1cc(C)ccc1-2
Output: 2.1 nM

Task: Recall and state the measured Ki for Cc1cn2c(n1)-c1cc(Br)ccc1-n1cnc(C)c1C2 .
Output: 119 nM

Task: Fill in reported Ki for this entry: C#Cc1ncn2c1Cn1cnnc1-c1cc(Br)ccc1-2
Output: 7.8 nM

Task: Return Ki (reported value) for this compound: C#Cc1ccc2c(c1)-c1nc(C)ncc1Cc1c(C(=O)OCC)ncn1-2
Output: 8.1 nM

Task: Tell me measured Ki for Clc1ncn2c1Cn1nccc1-c1ccccc1-2 please.
Output: 2 nM

Task: Query Ki for C#Cc1ccc2c(c1)-c1nncn1Cc1c(C(=O)OCC)ncn1-2
Output: 2.3 nM

Task: Annotate the compound CCOC(=O)c1ncn2c1Cn1ncnc1-c1cc(OC)ccc1-2 with its measured Ki.
Output: 0.2 nM

Task: Identify the reported Ki for the following entry. CCOC(=O)c1ncn2c1Cn1ncnc1-c1cc(Br)ccc1-2
Output: 0.3 nM

Task: Supply Ki value. Item: CCOC(=O)c1ncn2c1Cn1ncnc1-c1ccccc1-2
Output: 0.2 nM

Task: Output Ki of CCOC(=O)c1ncn2c1Cn1ncnc1-c1cc(OC(F)(F)F)ccc1-2
Output: 0.8 nM

Task: Give the value of Ki reported for the following: CCOC(=O)c1ncn2c1Cc1cnc(Cc3ccc(OC)cc3)nc1-c1ccccc1-2
Output: 12.5 nM

Task: For the compound Cc1ncn2c1Cn1cnnc1-c1cc(Br)ccc1-2 , give its measured Ki value.
Output: 150 nM

Task: Consider the compound Cc1ncn2c1Cn1nccc1-c1cc(Br)ccc1-2 and give its recorded Ki.
Output: 49.1 nM

Task: Report Ki for CC(C)C(=O)c1ncn2c1Cn1cnnc1-c1cc(Br)ccc1-2
Output: 55.5 nM

Task: Output Ki of Cc1ncn2c1Cn1cc(CO)nc1-c1cc(Br)ccc1-2
Output: 8.1 nM

Task: Check the records and state Ki for CCOC(=O)c1ncn2c1Cn1ncnc1-c1cc(C3CC3)ccc1-2
Output: 0.6 nM

Task: Query Ki for CCOC(=O)c1ncn2c1Cn1c(Cc3ccccc3)nnc1-c1cc(OC)ccc1-2
Output: 22.9 nM

Task: Return Ki (reported value) for this compound: CCOC(=O)c1ncn2c1Cc1cnc(C)nc1-c1cc(Br)ccc1-2
Output: 12.5 nM

Task: For the compound CCOC(=O)c1ncn2c1Cn1cnnc1-c1cc(Br)ccc1-2 , report Ki.
Output: 0.6 nM

Task: Answer with the recorded Ki for the compound listed here: CCOC(=O)c1ncn2c1Cn1cnnc1-c1cc(Cl)ccc1-2
Output: 1.2 nM

Task: Answer with reported Ki of CCOC(=O)c1ncn2c1Cn1ncnc1-c1cc(C)ccc1-2
Output: 0.5 nM

Task: Dear colleague, please send me the reported Ki for CCOC(=O)c1ncn2c1Cc1cncnc1-c1cc(Br)ccc1-2 when you can.
Output: 20.2 nM

All values here come from ChEMBL document CHEMBL1156033.
